# measurement_notes: Plate-based fluorescence (RiboGreen) assay: nucleic acid cargo content and encapsulation efficiency of LNPs
# Format: physicochemical
# measurement_context: LNP, Formulation F2, N/P 3
EE (%) N/P:3 by entry:
All answers are understood in %, so give the number only.

The cases that follow already have their EE (%) N/P:3 on record.
Form field EE (%) N/P:3, entry CCCCCCCC/C=C\CCCCCCCC(=O)OCC(COC(=O)CCCCCCC/C=C\CCCCCCCC)(COC(=O)CCCCCCC/C=C\CCCCCCCC)COC(=O)CCC(CCCCCC)OC(=O)NCCN1CCCC1 (stereo not shown) : 98

response.value for CCCCCCCC/C=C\CCCCCCCC(=O)OCC(COC(=O)CCCCCCC/C=C\CCCCCCCC)(COC(=O)CCC(CCCCCC)OC(=O)NCCN1CCCC1)COC(=O)CCC(OCCCCCCCC)OCCCCCCCC (stereo not shown) (field: EE (%) N/P:3) = 98

The recorded EE (%) N/P:3 for entry CCCCC/C=C\CCOC(=O)CCCCCCC(=O)OCC(COC(=O)CCCCCCC(=O)OCC/C=C\CCCCC)(COC(=O)CCCCCCC(=O)OCC/C=C\CCCCC)COC(=O)CCC(CCCCCC)OC(=O)NCCN1CCCC1 (stereo not shown) equals 98

Query molecule follows.
// EE (%) N/P:3 value for CCCCC/C=C\C/C=C\CCCCCCCC(=O)OCC(COC(=O)CCCCCCC/C=C\C/C=C\CCCCC)(COC(=O)CCC(CCCCCC)OC(=O)NCCN1CCCC1)COC(=O)CCC(OCCCCCCCC)OCCCCCCCC (stereo not shown) : 99

====

# measurement_notes: Plate-based fluorescence (RiboGreen) assay: nucleic acid cargo content and encapsulation efficiency of LNPs
# Format: physicochemical
# measurement_context: LNP compositions for Formulation F2 Study
outcome_measure: EE % (%)
I only need the number, in %, no unit after it.

Worked examples, 4 molecules total:
The molecule listed as CCCCC/C=C\CCOC(=O)CCCCCC(=O)OCC(COC(=O)CCCCCC(=O)OCC/C=C\CCCCC)(COC(=O)CCC(CCCCCC)OC(=O)NCCN1CCCC1)COC(=O)CC12CC3CC(CC(C3)C1)C2 (stereo not drawn) has a reported EE % of 98

Entry CCCCC/C=C\CCOC(=O)CCCCCC(=O)OCC(COC(=O)CCCCCC(=O)OCC/C=C\CCCCC)(COC(=O)CCCCCC(=O)OCC/C=C\CCCCC)COC(=O)CCC(CCCCCC)OC(=O)NCCN1CCCC1 (stereo not drawn) — recorded EE % = 98

# EE % (molecule: CCCCC/C=C\CCOC(=O)CCCCC(=O)OCC(COC(=O)CCCCC(=O)OCC/C=C\CCCCC)(COC(=O)CCC(CCCCCC)OC(=O)NCCN1CCCC1)COC(=O)CC12CC3CC(CC(C3)C1)C2 (stereo not drawn) ) is 99

Recorded result, CCCCCCC(CCC(=O)OCC(COC(=O)CCCCCCOC(=O)C(CCCC)CCCCCC)(COC(=O)CCCCCCOC(=O)C(CCCC)CCCCCC)COC(=O)CCCCCCOC(=O)C(CCCC)CCCCCC)OC(=O)NCCN1CCCC1 (stereo not drawn) , EE %: 98

New cases:
Per the record, CCCCC/C=C\C/C=C\CCCCCCCCC(CCCCCCCC/C=C\C/C=C\CCCCC)OC(=O)CCCN(C)C [MC3, reference compound] has EE % of 98

The molecule CCCCC/C=C\CCOC(=O)CCCCCCC(=O)OCC(COC(=O)CCCCCCC(=O)OCC/C=C\CCCCC)(COC(=O)CCCCCCC(=O)OCC/C=C\CCCCC)COC(=O)CCC(CCCCCC)OC(=O)NCCN1CCCC1 (stereo not drawn) showed EE % equal to 98
